Molecular target: T1, DFNB31_3, Q9P202
T1 sequence (Q9P202 811-907, limits assumed, looked up): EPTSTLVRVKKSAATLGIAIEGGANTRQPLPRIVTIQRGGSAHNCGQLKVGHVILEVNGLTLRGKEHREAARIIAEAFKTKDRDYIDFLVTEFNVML
Test: holdup assay
Design: key: below the threshold = too weak to quantify, mostly under pKd 3.1 to 4
Conditions: plain residues with an end cap or a label only (N-terminal biotin on a linker: ahx)

{"columns": ["BINDER", "pKd"],
 "data": [
  ["SAPATLSSRA [PDLIM2, Q96JY6]", "below the threshold"],
  ["ADENEQVSAV [RAPGEF6, Q8TEU7]", "below the threshold"],
  ["AKPQPVDSWV [ARVCF, O00192]", "below the threshold"],
  ["KEYDDELTFF [USH1C, Q9Y6N9]", 3.88]
]}
